Parameter koff: see the listing below.
Target: T1, recombinant human CTGF-Fc protein (Creative Biomart) (human)
T1 construct: Bought; also called human CTGF with a human IgG1 Fc Tag
T1 sequence (chain, as listed by the source limits assumed): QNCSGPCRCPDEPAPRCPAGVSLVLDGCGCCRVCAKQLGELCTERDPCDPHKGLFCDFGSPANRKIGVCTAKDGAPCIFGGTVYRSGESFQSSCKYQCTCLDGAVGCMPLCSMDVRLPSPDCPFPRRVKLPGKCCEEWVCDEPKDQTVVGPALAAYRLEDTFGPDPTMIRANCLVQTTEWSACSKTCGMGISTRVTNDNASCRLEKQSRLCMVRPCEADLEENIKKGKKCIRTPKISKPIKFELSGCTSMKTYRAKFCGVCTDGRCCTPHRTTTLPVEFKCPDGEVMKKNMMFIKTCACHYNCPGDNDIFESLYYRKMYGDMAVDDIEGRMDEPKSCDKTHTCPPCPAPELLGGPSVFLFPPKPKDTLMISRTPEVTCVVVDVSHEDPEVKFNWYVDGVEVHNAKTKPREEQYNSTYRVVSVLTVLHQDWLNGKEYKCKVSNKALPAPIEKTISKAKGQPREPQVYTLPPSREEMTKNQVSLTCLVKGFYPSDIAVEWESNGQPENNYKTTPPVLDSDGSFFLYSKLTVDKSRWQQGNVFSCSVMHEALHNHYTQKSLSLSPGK
Assay: SPR (Biacore)
Quick reminder: number only, in s⁻¹, skip the unit.

The cases that follow already have their koff on record.
{"binder": "lipocalin mutein of SEQ ID NO: 18 (designed binder, also called hNGAL mutein; not shown: C-terminal His-tag) QDSTSDLIPAPPLSKVPLQQNFQDNQFQGKWYVVGIAGNAILRDDKYPAKMFATIYELKEDKSYDVTSVRFENKSCIYTIKTFVPGSQPGEFTHGNIKSHPGQTSTLVRVVSTNYNQHAMVFFKHVSQNREIFVITLYGRTKELTSELKENFIRFSKSLGLPENHIVFPVPIDQCIDG", "unit.name": "s⁻¹", "koff": "3.05e-06"}
{"binder": "lipocalin mutein of SEQ ID NO: 33 (designed binder, also called hNGAL mutein; not shown: C-terminal His-tag) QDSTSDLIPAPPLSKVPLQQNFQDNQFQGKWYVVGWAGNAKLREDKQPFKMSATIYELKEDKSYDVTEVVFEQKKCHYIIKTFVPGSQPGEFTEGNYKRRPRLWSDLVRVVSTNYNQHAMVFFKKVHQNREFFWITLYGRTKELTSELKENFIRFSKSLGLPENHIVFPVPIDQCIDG", "unit.name": "s⁻¹", "koff": "1.71e-05"}
{"binder": "lipocalin mutein of SEQ ID NO: 28 (designed binder, also called hNGAL mutein; not shown: C-terminal His-tag) QDSTSDLIPAPPLSKVPLQQNFQDNQFQGKWYVVGLAGNYRLREDKDPSKMGATIYELKEDKSYDVTQVQFDDKKCLYVIETFVPGSQPGEFTLGAIKSYPGLTSQLVRVVSTNYNQHAMVFVKKVWPNLEYFQIVLYGRTKELTSELKENFIRFSKSLGLPENHIVFPVPIDQCIDG", "unit.name": "s⁻¹", "koff": "2.61e-05"}

# input Sample lipocalin mutein of SEQ ID NO: 27 (designed binder, also called hNGAL mutein; not shown: C-terminal His-tag) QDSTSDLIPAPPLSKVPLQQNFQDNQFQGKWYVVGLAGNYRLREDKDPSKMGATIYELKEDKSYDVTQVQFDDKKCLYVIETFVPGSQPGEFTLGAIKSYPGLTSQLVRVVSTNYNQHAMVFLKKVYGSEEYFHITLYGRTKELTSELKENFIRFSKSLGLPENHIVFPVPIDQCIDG — what was its koff?
# output 2.45e-05

# input Reported koff for lipocalin mutein of SEQ ID NO: 23 (designed binder, also called hNGAL mutein) QDSTSDLIPAPPLSKVPLQQNFQDNQFQGKWYVVGVAGNAILRPDKQPAKMFATIYELKEDKSYDVTSVRFEAKSCKYTIKTFVPGSQPGEFTSGQIKSAPGQTSTLVRVVSTNYNQHAMVFFKHVSQNREIFVITLYGRTKELTSELKENFIRFSKSLGLPENHIVFPVPIDQCIDG : what is it?
# output 9.42e-06

# input Reported koff, binder lipocalin mutein of SEQ ID NO: 32 (designed binder, also called hNGAL mutein; not shown: C-terminal His-tag) QDSTSDLIPAPPLSKVPLQQNFQDNQFQGKWYVVGWAGNVKLREDKQPFKMSATIYELKEDKSYDVTEVVFEQKKCHYIIKTFVPGSQPGEFTLSPISSSPGLVSHLVRVVSTNYNQHAMVFFKKVHQNREFFWITLYGRTKELTSELKENFIRFSKSLGLPENHIVFPVPIDQCIDG : ____
# output 6.39e-05
